- systemTested: TRKA (Homo sapiens (Human), UniProt P04629)
- Sequence (P04629 441-796): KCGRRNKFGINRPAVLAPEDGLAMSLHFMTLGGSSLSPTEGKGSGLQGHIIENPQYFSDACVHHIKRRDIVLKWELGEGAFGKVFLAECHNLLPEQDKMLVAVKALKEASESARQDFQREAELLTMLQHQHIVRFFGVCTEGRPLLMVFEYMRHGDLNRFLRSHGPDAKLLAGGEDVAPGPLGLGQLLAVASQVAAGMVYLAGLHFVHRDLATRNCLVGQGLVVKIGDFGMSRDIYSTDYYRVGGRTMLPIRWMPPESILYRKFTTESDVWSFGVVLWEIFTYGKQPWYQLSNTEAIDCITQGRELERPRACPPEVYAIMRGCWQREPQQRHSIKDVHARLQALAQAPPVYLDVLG
- experimentDescription: Isolated TRK enzyme assay (HTRF KinEASE-TK), TRKA
- Format: biochemical
- conditionNotes: read-out: Trka enzyme (IC50)
Reported IC50 values are given for each entry in this list.
Write the number in nM without appending the unit.

The following molecules have reported results that may help.
> print(dat)
                                 itemsmiles  quantitykind  unit  reportedresult
1  Cc1n[nH]c(C(F)(F)F)c1C(=O)Nc1cncc(C(=O)c2cn(C(C)C)c3ncncc23)c1          IC50    nM            6880
2  CC(C)n1cc(C(=O)c2cncc(NC(=O)Cc3cn4ccccc4n3)c2)c2cncnc21          IC50    nM             206
3  CC(C)(CO)n1cc(C(=O)c2cncc(NC(=O)Cn3cc(C(F)(F)F)cn3)c2)c2cnc(N)nc21          IC50    nM            3.11

query: Please tell me the measured IC50 for "CC(C)n1cc(C(=O)c2c[nH]c(=O)c(NC(=O)Cc3coc(C4CC4)n3)c2)c2cncnc21" ; system: TRKA (Homo sapiens (Human), UniProt P04629).
result: 1000

###

- systemTested: TRKA (Homo sapiens (Human), UniProt P04629)
- experimentDescription: Isolated TRK enzyme assay (HTRF KinEASE-TK), TRKA
- Assay type: biochemical
- conditionNotes: read-out: Trka enzyme (IC50)
quantityKind: IC50 (µM)
Numeric only. Scale: µM

> print(dat)
                                   compound  quantitykind  unit  reportedresult
1  CC(C)n1cc(C(=O)c2cncc(NC(=O)c3cc(C#N)ccn3)c2)c2cncnc21 [Example 480]          IC50    µM           0.531

query: Report IC50 under test system TRKA (Homo sapiens (Human), UniProt P04629) for Cc1cncc(C(=O)Nc2cncc(C(=O)c3cn(C(C)C)c4ncncc34)c2)n1 [Example 464] .
result: 3.01

query: Answer with IC50 of Cc1cccc(C(=O)Nc2cncc(C(=O)c3cn(C(C)C)c4ncncc34)c2)n1 [Example 440] measured for TRKA (Homo sapiens (Human), UniProt P04629).
result: 0.676

query: # return IC50 for Cn1cc(C(=O)c2cncc(NC(=O)Cc3ccc(OC(F)(F)F)cc3)c2)c2cncnc21 [Example 196] , test system: TRKA (Homo sapiens (Human), UniProt P04629)
result: 0.791

query: // fetch IC50; item: CC(C)n1cc(C(=O)c2cncc(NC(=O)Cc3cncc(OC4CC4)c3)c2)c2cncnc21 [Example 91] ; system: TRKA (Homo sapiens (Human), UniProt P04629)
result: 1.03

query: Report IC50 on TRKA (Homo sapiens (Human), UniProt P04629) for this entry: Cc1nc2ncccn2c1C(=O)Nc1cncc(C(=O)c2cn(C(C)C)c3ncncc23)c1 [Example 461]
result: 9.8

###

This section lists pIC50 readings for TRKC (Homo sapiens (Human), UniProt Q16288).
# reply with the number alone; pIC50 is -log10 of concentration in mol/L

Please review the following examples before continuing.
> print(dat)
                                 itemsmiles  reportedresult
1  CC(C)(CO)n1cc(C(=O)c2cncc(NC(=O)Cn3ccc(C4CC4)n3)c2)c2cnc(N)nc21            8.07
2  CC(C)(CO)n1cc(C(=O)c2cncc(NC(=O)Cc3ccc(F)cn3)c2)c2cnc(N)nc21            8.00
3  CC(C)(CO)n1cc(C(=O)c2cncc(NC(=O)Cn3ccc(C(F)(F)F)n3)c2)c2cnc(N)nc21            8.09

query: Check TRKC (Homo sapiens (Human), UniProt Q16288) data and give pIC50 for "Cc1cc(C(F)(F)F)nn1CC(=O)Nc1cncc(C(=O)c2cn(C(C)(C)CO)c3ncncc23)c1" .
result: 8.07
